These measurements were taken from patent US20250339399A1.

Concentration of the target in the solution measured after different incubation time reference
assay: Binary supramolecular self-assembly systems of polymer and target: guest concentration over incubation time (Comparative Example 2); format: physicochemical; conditions: binary system with 0.5% polymer 104; incubation 6 h
Express the result in ng/mL but write the number alone.

Consider the following illustrative entries.
* CCCSc1nc(N[C@@H]2C[C@H]2c2ccc(F)c(F)c2)c2nnn([C@@H]3C[C@H](OCCO)[C@@H](O)[C@H]3O)c2n1 [Ticagrelor] | 9100
* CCC(C)n1ncn(-c2ccc(N3CCN(c4ccc(OCC5COC(Cn6cncn6)(c6ccc(Cl)cc6Cl)O5)cc4)CC3)cc2)c1=O (stereo not drawn) [Itraconazole, itraconazole] | 3100
* COc1cc2nccc(Oc3ccc(NC(=O)NC4CC4)c(Cl)c3)c2cc1C(N)=O [Lenvatinib] | 67500
* CC(C)OC(=O)CCC/C=C\C[C@@H]1[C@@H](/C=C/C(F)(F)COc2ccccc2)[C@H](O)C[C@@H]1O [Tafluprost, tafluprost] | 17300
* CNC(=O)c1cc(Oc2ccc(NC(=O)Nc3ccc(Cl)c(C(F)(F)F)c3)cc2)ccn1 [Sorafenib] | 3700
* C=CC(=O)N1CCC[C@@H](n2nc(-c3ccc(Oc4ccccc4)cc3)c3c(N)ncnc32)C1 [Ibrutinib] | 14300
* Cc1cn(-c2cc(NC(=O)c3ccc(C)c(Nc4nccc(-c5cccnc5)n4)c3)cc(C(F)(F)F)c2)cn1 [Nilotinib] | 61400
* CC(=O)c1c(C)c2cnc(Nc3ccc(N4CCNCC4)cn3)nc2n(C2CCCC2)c1=O [Palbociclib] | 144800

Q: Bench note: what Concentration of the target in the solution measured after different incubation time did O=C1[C@H](CC[C@H](O)c2ccc(F)cc2)[C@@H](c2ccc(O)cc2)N1c1ccc(F)cc1 [Ezetimibe] show?
Result: 2700

====

Test: Binary supramolecular self-assembly systems of polymer and target: guest concentration over incubation time (Comparative Example 2)
Type: physicochemical
Conditions: binary system with 0.5% polymer 107; incubation 6 h
Description: Experiments were conducted according to the steps in Comparative Example 1, and quantitative analysis was carried out using the analytical method for each target to investigate the regulation ability […] stacking.
Class key for Concentration of the target in the solution measured after different incubation time values: lower range = under 40000 ng/mL, middle range = from 40000 ng/mL up to 50000 ng/mL, upper range = 50000 ng/mL and over

See these solved cases before continuing.
- COc1cc(/C=C/C(=O)CC(=O)/C=C/c2ccc(O)c(OC)c2)ccc1O [Curcumin]: lower range
- CC(C)OC(=O)CCC/C=C\C[C@@H]1[C@@H](/C=C/C(F)(F)COc2ccccc2)[C@H](O)C[C@@H]1O [Tafluprost, tafluprost]: lower range
- O=C(O)[C@H]1O[C@@H](Oc2cc3oc(-c4ccc(O)cc4)cc(=O)c3c(O)c2O)[C@H](O)[C@@H](O)[C@@H]1O [Scutellarin, scutellarin]: middle range
- COC(=O)[C@H](c1ccccc1Cl)N1CCc2sccc2C1 [Clopidogrel, clopidogrel]: lower range
- CNC(=O)c1ccc(N2C(=S)N(c3ccc(C#N)c(C(F)(F)F)c3)C(=O)C2(C)C)cc1F [Enzalutamide]: upper range
- C=CC[C@@H]1/C=C(\C)C[C@H](C)C[C@H](OC)[C@H]2O[C@@](O)(C(=O)C(=O)N3CCCC[C@H]3C(=O)O[C@H](/C(C)=C/[C@@H]3CC[C@@H](O)[C@H](OC)C3)[C@H](C)[C@@H](O)CC1=O)[C@H](C)C[C@@H]2OC [Tacrolimus]: lower range

Q: Hello team, could you let me know which band the following compound falls into: O=C1[C@@H]2[C@H]3CC[C@H](C3)[C@@H]2C(=O)N1C[C@@H]1CCCC[C@H]1CN1CCN(c2nsc3ccccc23)CC1 [Lurasidone, lurasidone]
Result: lower range

Q: Place this compound in its band: C=CC(=O)N1CCC[C@@H](n2nc(-c3ccc(Oc4ccccc4)cc3)c3c(N)ncnc32)C1 [Ibrutinib]
Result: upper range

Q: Tag the class for Cc1cn(-c2cc(NC(=O)c3ccc(C)c(Nc4nccc(-c5cccnc5)n4)c3)cc(C(F)(F)F)c2)cn1 [Nilotinib]
Result: upper range

Q: Category of CCCSc1nc(N[C@@H]2C[C@H]2c2ccc(F)c(F)c2)c2nnn([C@@H]3C[C@H](OCCO)[C@@H](O)[C@H]3O)c2n1 [Ticagrelor] , please.
Result: middle range

====

The compounds listed here are annotated with their Concentration of the target in the solution measured after different incubation time.
test: Binary supramolecular self-assembly systems of polymer and target: guest concentration over incubation time (Comparative Example 2); type: physicochemical; details: binary system with 0.5% polymer 106; incubation 0.5 h
# value in µg/mL; strip the unit string

Field: example entries. Status: answers known.
- CC(=O)c1c(C)c2cnc(Nc3ccc(N4CCNCC4)cn3)nc2n(C2CCCC2)c1=O: 131.3
- C=CC[C@@H]1/C=C(\C)C[C@H](C)C[C@H](OC)[C@H]2O[C@@](O)(C(=O)C(=O)N3CCCC[C@H]3C(=O)O[C@H](/C(C)=C/[C@@H]3CC[C@@H](O)[C@H](OC)C3)[C@H](C)[C@@H](O)CC1=O)[C@H](C)C[C@@H]2OC: 78.6
- CCc1cc2c(cc1N1CCC(N3CCOCC3)CC1)C(C)(C)c1[nH]c3cc(C#N)ccc3c1C2=O: 1.4
- COC(=O)[C@H](c1ccccc1Cl)N1CCc2sccc2C1: 37.0
- O=C(O)[C@H]1O[C@@H](Oc2cc3oc(-c4ccc(O)cc4)cc(=O)c3c(O)c2O)[C@H](O)[C@@H](O)[C@@H]1O: 57.4

Q: Look up Concentration of the target in the solution measured after different incubation time: `COc1cc(/C=C/C(=O)CC(=O)/C=C/c2ccc(O)c(OC)c2)ccc1O`
Result: 102.6

Q: Give the measured Concentration of the target in the solution measured after different incubation time of `COC1=CC(=O)C[C@@H](C)[C@]12Oc1c(Cl)c(OC)cc(OC)c1C2=O` .
Result: 67.9

====

assay: Binary supramolecular self-assembly systems of polymer and target: guest concentration over incubation time (Comparative Example 2); type: physicochemical; conditions: binary system with 0.5% polymer 101; incubation 3 h
Here the recorded Concentration of the target in the solution measured after different incubation time is given for each entry.
Give the value, in units of µg/mL, as a plain number.

• CCc1cc2c(cc1N1CCC(N3CCOCC3)CC1)C(C)(C)c1[nH]c3cc(C#N)ccc3c1C2=O = 31.0
• CC1(C)CCC(CN2CCN(c3ccc(C(=O)NS(=O)(=O)c4ccc(NCC5CCOCC5)c([N+](=O)[O-])c4)c(Oc4cnc5[nH]ccc5c4)c3)CC2)=C(c2ccc(Cl)cc2)C1 = 249.5
• CCCSc1nc(N[C@@H]2C[C@H]2c2ccc(F)c(F)c2)c2nnn([C@@H]3C[C@H](OCCO)[C@@H](O)[C@H]3O)c2n1 = 47.2
• C=C(C)[C@@H]1CCC(C)=C[C@H]1c1c(O)cc(CCCCC)cc1O = 293.7

Q: Reported Concentration of the target in the solution measured after different incubation time for `C=CC(=O)N1CCC[C@@H](n2nc(-c3ccc(Oc4ccccc4)cc3)c3c(N)ncnc32)C1` : what is it?
Result: 93.5

Q: Record request: Concentration of the target in the solution measured after different incubation time value, item `CCCNS(=O)(=O)Nc1ncnc(OCCOc2ncc(Br)cn2)c1-c1ccc(Br)cc1`
Result: 75.2

Q: // returns reported Concentration of the target in the solution measured after different incubation time for input CCOc1nc2cccc(C(=O)OC(C)OC(=O)OC3CCCCC3)c2n1Cc1ccc(-c2ccccc2-c2nnn[nH]2)cc1 (centres unmarked)
Result: 34.5

Q: Looking for the measured Concentration of the target in the solution measured after different incubation time of `COc1cc2nccc(Oc3ccc(NC(=O)NC4CC4)c(Cl)c3)c2cc1C(N)=O` , can you help?
Result: 29.3

Q: Dear colleague, I am looking for the recorded Concentration of the target in the solution measured after different incubation time of the following molecule: `CC(=O)c1c(C)c2cnc(Nc3ccc(N4CCNCC4)cn3)nc2n(C2CCCC2)c1=O`
Result: 89.0

Q: What value of Concentration of the target in the solution measured after different incubation time has been reported for the following molecule? `O=C1[C@@H]2[C@H]3CC[C@H](C3)[C@@H]2C(=O)N1C[C@@H]1CCCC[C@H]1CN1CCN(c2nsc3ccccc23)CC1`
Result: 13.5

Q: If you can, please state the reported Concentration of the target in the solution measured after different incubation time value of `Cc1ccc(-c2cc(C(F)(F)F)nn2-c2ccc(S(N)(=O)=O)cc2)cc1` .
Result: 62.2

====

Below, each of the molecules is paired with its reported Concentration of the target in the solution measured after different incubation time value.
Assay: Binary supramolecular self-assembly systems of polymer and target: guest concentration over incubation time (Comparative Example 2)
Assay type: physicochemical
Settings: binary system with 0.5% polymer 101; incubation 0.5 h
Experimental: Experiments were conducted according to the steps in Comparative Example 1, and quantitative analysis was carried out using the analytical method for each target to investigate the regulation ability […] stacking.
Answer in µg/mL, number only, no unit symbol.

These recorded examples may help you get a feel for the data.
* CNC(=O)c1ccc(N2C(=S)N(c3ccc(C#N)c(C(F)(F)F)c3)C(=O)C2(C)C)cc1F [Enzalutamide] | 272.9
* C=CC[C@@H]1/C=C(\C)C[C@H](C)C[C@H](OC)[C@H]2O[C@@](O)(C(=O)C(=O)N3CCCC[C@H]3C(=O)O[C@H](/C(C)=C/[C@@H]3CC[C@@H](O)[C@H](OC)C3)[C@H](C)[C@@H](O)CC1=O)[C@H](C)C[C@@H]2OC | 224.0
* CCOC(=O)C1=C(C)NC(C)=C(C(=O)OC)C1c1cccc(Cl)c1Cl (stereo not shown) | 144.8

Q: For `CC(C)OC(=O)CCC/C=C\C[C@@H]1[C@@H](/C=C/C(F)(F)COc2ccccc2)[C@H](O)C[C@@H]1O` , what is its reported Concentration of the target in the solution measured after different incubation time?
Result: 57.6
